System: AP-1 induced transcriptional activity
Experiment Summary: Cellular Transrepressional Assay (AP-1 luciferase reporter in A549 cells, PMA-activated)
Type: cell-based
Condition Label: A549 cells with 7x AP-1 luciferase reporter, 10 ng/ml PMA, 7 hours; read-out: AP-1 (EC50, nM) (Cellular Transrepression Assay)
The entries below come with measured log10(EC50) values attached.
Reported Property: log10(EC50) (log10 of the value in nM)

compound="O=C(Nc1nccs1)C1CC1(c1ccccc1)c1ccc2c(cnn2-c2ccc(F)cc2)c1 (stereo not shown) [Example 98]" system_tested="AP-1 induced transcriptional activity" recorded_measurement=1.53
compound="CC(C)(C(=O)Nc1nccs1)C(c1ccccc1)c1ccc2[nH]c(-c3ccccn3)cc2c1 (single isomer, unassigned)" system_tested="AP-1 induced transcriptional activity" recorded_measurement=2.89
compound="O=C(Nc1nncs1)C(c1ccccc1)C(c1ccccc1)c1ccc2[nH]ncc2c1 (single isomer, unassigned) [152-diast B]" system_tested="AP-1 induced transcriptional activity" recorded_measurement=3.70
compound="CC(C(=O)Nc1nncs1)C(c1ccccc1)c1ccc2[nH]ncc2c1 (single isomer, unassigned) [151-diast B]" system_tested="AP-1 induced transcriptional activity" recorded_measurement=3.24
compound="CC(C)(C(=O)NC1CCCC1O)C(Cc1ccccc1)c1ccc2c(cnn2-c2ccc(F)cc2)c1 (single isomer, unassigned) [Example 124-isomerD]" system_tested="AP-1 induced transcriptional activity" recorded_measurement=1.60
compound="O=C(CC(c1ccccc1)c1ccc2c(cnn2-c2ccc(F)cc2)c1)Nc1nncs1 (single isomer, unassigned) [136-enant B]" system_tested="AP-1 induced transcriptional activity" recorded_measurement=1.11
compound="CC(C(=O)Nc1nncs1)C(c1ccccc1)c1ccc2c(cnn2-c2ccc(F)cc2)c1 (single isomer, unassigned) [Example 141-isomerC]" system_tested="AP-1 induced transcriptional activity" recorded_measurement=-0.64
compound="O=C(Nc1nncs1)C(c1ccccc1)C(c1ccccc1)c1ccc2c(cnn2-c2ccc(F)cc2)c1 (single isomer, unassigned) [Example 145-isomerC]" system_tested="AP-1 induced transcriptional activity" recorded_measurement=3.70
compound="O=C(Nc1nncs1)C(c1ccccc1)C(c1ccccc1)c1ccc2c(cnn2-c2ccc(F)cc2)c1 (single isomer, unassigned) [Example 145-isomerB]" system_tested="AP-1 induced transcriptional activity" recorded_measurement=0.70
